This listing pairs molecules with measured Percent Effect.
Species: Homo sapiens
assay-text: To identify inhibition of the IFN signalling (Jak-Stat) pathway via expression of an eGFP reporter gene under the control of an IFN-stimulated response element (ISRE) containing MxA promoter.
Type: functional
Design: scale not given: direction of the effect not stated beside the values
run-parameters: 30 µM
assay-metric: Percent Effect

molecule	assay-metric	recorded-result
c1ccc(-c2cnc(CNCC3CCCN3c3cccnn3)o2)cc1 (centres undefined)	Percent Effect	0.932%
COc1ccc(CN2CCc3nc(C4CCCCN4C)ncc3C2)cc1 (centres undefined)	Percent Effect	11.8%
Cc1cnn(CCNCc2nc(Cc3ccccc3)no2)c1	Percent Effect	13.2%
COc1ccc(F)cc1S(=O)(=O)NCC(c1cccn1C)N(C)C (centres undefined)	Percent Effect	7.4%
CC(C)CNC(=O)c1ccc2nnc(C3CCN(S(C)(=O)=O)C3)n2c1 (centres undefined)	Percent Effect	-2.55%
CN(C)CCO[C@@H]1CC[C@H]2[C@H]1OCCN2C(=O)CCc1ccccc1	Percent Effect	-1.39%
Cn1ccc(C(=O)N2CCN(c3cc(C#N)ccn3)CC2)cc1=O	Percent Effect	6.78%
COc1ccc(OCC(=O)NC(C)c2ccc(F)cc2)c(C(=O)O)c1 (centres undefined)	Percent Effect	-0.568%
COc1cccc(C2CC(=O)Nc3nc(N)sc32)c1OC (centres undefined)	Percent Effect	-3.92%
c1ccc2oc(CCCN3CCOC(Cn4cccn4)C3)nc2c1 (centres undefined)	Percent Effect	7.24%
Cc1ccsc1CN(Cc1ccccn1)CC(C)C	Percent Effect	-27.8%
OC(CN1CCN(Cc2ccc(F)cc2)CC1)C1CC1 (centres undefined)	Percent Effect	2.15%
Cc1ccsc1C(=O)NCCCn1nc2ccccn2c1=O	Percent Effect	20.9%
CCc1ccsc1C(=O)N1CCN(CC(O)CC)CC1 (centres undefined)	Percent Effect	-8.47%
COCC1CC2(CCN(Cc3cnn(C)c3)CC2)CN1c1ncccn1 (centres undefined)	Percent Effect	-19%
Cc1nc(C2CCCCN2C(=O)c2ccccc2)ncc1C(=O)N(C)C (centres undefined)	Percent Effect	10.8%
CN(C)C(C(=O)N1CCCC1)c1ccccc1F (centres undefined)	Percent Effect	-1.68%
Cc1cnn(CC2CN(CCS(=O)(=O)c3ccccc3)CCO2)c1 (centres undefined)	Percent Effect	12.1%
c1cnc(-c2nc(CNCCn3cccn3)cs2)nc1	Percent Effect	9.32%
Cc1ccsc1CN(C)Cc1nc2c(cnn2C)c(=O)[nH]1	Percent Effect	27.3%
O=C(O)C1CCCCN1C(=O)c1cccc(C(F)(F)F)c1 (centres undefined)	Percent Effect	-1.55%
Cc1cc(C)n(C2CCCN(C(=O)c3cc(C4CC4)on3)C2)n1 (centres undefined)	Percent Effect	-1.26%
Cc1cc(C)c(OCC(=O)NS(=O)(=O)c2cccnc2)c(C)c1	Percent Effect	6.77%
CC(C)Cc1ccc(S(=O)(=O)Nc2ccc(=O)n(C)c2)cc1	Percent Effect	69%
